Just for reference, patent US20240376185A1 is where these values come from.

biological target: tetanus neurotoxin (TeNT), authentic tetanus holotoxin (Clostridium tetani, UniProt P04958 2-1315); experiment: competition ELISA on TeNT, binder biotinylated; competitor SVT02L; note: test concentration or dose not given here
Sequence (P04958 2-457 limits assumed, chain 1 of 2): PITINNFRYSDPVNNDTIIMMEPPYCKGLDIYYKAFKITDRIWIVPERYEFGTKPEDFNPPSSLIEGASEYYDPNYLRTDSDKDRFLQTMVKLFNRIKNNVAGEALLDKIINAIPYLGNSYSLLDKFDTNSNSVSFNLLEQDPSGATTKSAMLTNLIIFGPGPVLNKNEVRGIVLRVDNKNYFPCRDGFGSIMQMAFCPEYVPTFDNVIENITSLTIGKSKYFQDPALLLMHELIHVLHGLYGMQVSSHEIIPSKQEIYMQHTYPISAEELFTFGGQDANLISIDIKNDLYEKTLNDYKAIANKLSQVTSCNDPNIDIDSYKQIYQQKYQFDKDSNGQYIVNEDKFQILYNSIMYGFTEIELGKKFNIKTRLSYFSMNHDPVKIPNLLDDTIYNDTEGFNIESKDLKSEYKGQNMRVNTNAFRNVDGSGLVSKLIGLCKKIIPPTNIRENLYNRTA
Sequence (P04958 458-1315 limits assumed, chain 2 of 2): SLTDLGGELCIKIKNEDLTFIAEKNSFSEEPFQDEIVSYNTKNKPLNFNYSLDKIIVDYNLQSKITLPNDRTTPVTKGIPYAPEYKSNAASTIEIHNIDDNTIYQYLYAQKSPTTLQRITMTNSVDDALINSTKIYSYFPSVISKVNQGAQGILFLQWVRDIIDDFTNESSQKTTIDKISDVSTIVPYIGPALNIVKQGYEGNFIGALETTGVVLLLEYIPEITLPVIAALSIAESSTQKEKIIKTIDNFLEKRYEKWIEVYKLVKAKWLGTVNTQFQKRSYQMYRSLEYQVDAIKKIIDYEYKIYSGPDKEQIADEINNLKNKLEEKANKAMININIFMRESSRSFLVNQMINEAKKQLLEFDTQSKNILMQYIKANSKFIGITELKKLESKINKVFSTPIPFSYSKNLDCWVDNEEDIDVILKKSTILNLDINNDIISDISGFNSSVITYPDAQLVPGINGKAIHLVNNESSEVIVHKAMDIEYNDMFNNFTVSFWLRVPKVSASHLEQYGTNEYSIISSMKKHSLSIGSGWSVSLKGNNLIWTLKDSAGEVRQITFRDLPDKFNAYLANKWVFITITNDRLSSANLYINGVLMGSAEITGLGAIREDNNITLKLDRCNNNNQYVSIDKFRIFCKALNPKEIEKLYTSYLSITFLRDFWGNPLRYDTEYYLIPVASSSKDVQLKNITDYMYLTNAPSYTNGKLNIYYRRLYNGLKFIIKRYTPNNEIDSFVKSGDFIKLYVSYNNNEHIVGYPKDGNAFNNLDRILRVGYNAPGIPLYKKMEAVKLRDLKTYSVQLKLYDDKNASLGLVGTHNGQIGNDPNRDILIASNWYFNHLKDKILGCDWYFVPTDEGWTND
MEASURED QUANTITY: % inhibition of binding (%)

BINDER	TEST VALUE
SVT06L (VHH) VHH: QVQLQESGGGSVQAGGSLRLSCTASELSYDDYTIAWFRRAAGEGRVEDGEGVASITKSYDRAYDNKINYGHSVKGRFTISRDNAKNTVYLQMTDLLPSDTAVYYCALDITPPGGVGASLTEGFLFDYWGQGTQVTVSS	11
SVT34L (VHH) VHH: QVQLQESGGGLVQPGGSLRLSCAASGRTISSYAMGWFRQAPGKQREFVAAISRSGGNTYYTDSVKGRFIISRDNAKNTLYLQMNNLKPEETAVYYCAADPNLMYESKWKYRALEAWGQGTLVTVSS	2
SVT16L (VHH) VHH: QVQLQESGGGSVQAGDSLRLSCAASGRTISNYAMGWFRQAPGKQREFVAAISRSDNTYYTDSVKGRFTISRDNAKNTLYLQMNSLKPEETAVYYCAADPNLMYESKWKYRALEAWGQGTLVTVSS	13
SVT02L (VHH) VHH: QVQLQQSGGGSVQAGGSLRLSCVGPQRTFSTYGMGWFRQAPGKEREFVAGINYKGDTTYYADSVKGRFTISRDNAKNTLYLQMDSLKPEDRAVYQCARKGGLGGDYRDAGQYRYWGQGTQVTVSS	96
